Measured ED50 accompanies every entry in the list below.
# Tested on: urine volume, Na^+, K^+
# protocol-description: diuresis test in rats (urine volume, Na+, K+ excretion; dose/response, ED50)
# Type: in vivo, Male Wister rats
# conditions: Rattus norvegicus, iv; duration 6 h; rats; read-out: ED50 (potency), urine Na^+
Numbers only; they are read as µmol/kg.

Some solved entries appear below for comparison.
compound	assayed-target	unit-annotation	reported
Nc1nc(N)c2nc(-c3ccccc3)c(N)nc2n1 [Triamterene, 2,4,7-triamino-6-phenylpteridine, reference compound]	urine volume, Na^+, K^+	µmol/kg	10.6
CN(C)CCc1ccc(-c2nc3c(N)nc(N)nc3nc2N)cc1	urine volume, Na^+, K^+	µmol/kg	1.64
CC1CCN(Cc2ccc(-c3nc4c(N)nc(N)nc4nc3N)cc2)CC1	urine volume, Na^+, K^+	µmol/kg	12.7

# input for lookup
Query string: Endpoint output: ED50 of CN(C)CCCc1ccc(-c2nc3c(N)nc(N)nc3nc2N)cc1 . Value?
Result string: 1.83

These measurements were taken from patent US5124326A.
